assay protocol: Agilent ZORBAX 300 SB-C18, 150 × 1 mm, 3.5 µm; A: water + 0.01% heptafluorobutyric acid; B: acetonitrile + 0.01% heptafluorobutyric acid; gradient (min/%B) 0/0 100/90
experimental parameters: stereoisomer not certain
Response field label takes Met when LC retention time is strictly below 9 min and Not met in all other cases.

{"compound": "c1ccc2c(N3CCCCC3)nc(N3CCCC3)nc2c1", "class name": "Not met"}
{"compound": "COc1ccc2c(c1C)CCC1=C(C)C(=O)CCC12C (configuration not stated)", "class name": "Not met"}
{"compound": "CC(C)(C)c1ccc(-c2cc(C(=O)O)c3c(ccc4ccccc43)n2)cc1", "class name": "Not met"}
{"compound": "CN1CCCCC1", "class name": "Met"}
{"compound": "C=CCN1CCC23c4c5ccc(O)c4OC2C(=O)CCC3(O)C1C5 (configuration not stated)", "class name": "Met"}
{"compound": "NCCCCCCN", "class name": "Met"}
{"compound": "CN(C)CCC=C1c2ccccc2C=Cc2ccccc21", "class name": "Not met"}
{"compound": "CCOC(=O)C1=CN(c2cc(C)ccc2C)C=C(C(=O)OCC)C1c1cccc(C)c1", "class name": "Not met"}
{"compound": "O=C(O)CC(NCc1ccccc1)C(=O)O (configuration not stated)", "class name": "Met"}
{"compound": "Cc1ccccc1N1C(=O)NC(=O)C(=Cc2cccn2C)C1=O", "class name": "Not met"}
{"compound": "C=Cc1ccccn1", "class name": "Met"}
{"compound": "O=C(O)CCCCC1SCC2NC(=O)NC21 (configuration not stated)", "class name": "Met"}
{"compound": "O=C(NCCc1ccco1)c1cccc2c1oc1ccccc12", "class name": "Not met"}
{"compound": "Nc1ccccc1C(=O)NN=C1CCCC1", "class name": "Not met"}
{"compound": "NC1CC(CO)C(O)C1O (configuration not stated)", "class name": "Met"}
{"compound": "CC1CCCCN1C(=O)c1ccccc1NC(=O)c1ccco1 (configuration not stated)", "class name": "Not met"}
{"compound": "O=C1CCCN1c1ccccc1", "class name": "Not met"}
{"compound": "O=C(C=Cc1ccccc1)c1ccc(O)c(O)c1O", "class name": "Not met"}
{"compound": "Cc1ccc(C)n1-c1ccccc1C(=O)O", "class name": "Not met"}
{"compound": "Cc1ccc(OCCOCn2c(C)cc(=O)[nH]c2=O)cc1", "class name": "Not met"}
{"compound": "Nc1ncnc(N)n1", "class name": "Met"}
{"compound": "COc1ccccc1NC(=O)C(=Cc1ccc(OC)c(OC)c1)NC(=O)c1ccccc1", "class name": "Not met"}
{"compound": "O=CNC1CCCCC1", "class name": "Met"}
{"compound": "COCCCN1CCC(CN)C1 (configuration not stated)", "class name": "Met"}
{"compound": "Cc1ccc(NC(=O)Cn2c(=O)c3c(C)cc(C)nc3n(-c3ccccc3)c2=O)c(C)c1", "class name": "Not met"}
{"compound": "c1ccc(-n2c3c(c4ccccc42)CCC3)cc1", "class name": "Not met"}
{"compound": "Nc1cccc2cc3ccccc3nc12", "class name": "Met"}
{"compound": "Cc1ccc(C(=O)c2ccc(CC(=O)O)n2C)cc1", "class name": "Not met"}
{"compound": "c1ccc(-n2ncc(-c3nn[nH]n3)n2)cc1", "class name": "Not met"}
{"compound": "COc1ccc(-n2c(O)c(Cc3ccc(OC)c(OC)c3)c(=O)[nH]c2=O)cc1", "class name": "Not met"}
{"compound": "O=C(CCCN1C(=O)c2ccccc2C1=O)OCc1ccccc1", "class name": "Not met"}
{"compound": "Cc1cc(C)cc(N)c1", "class name": "Met"}
{"compound": "CCOC(=O)c1ccc(NC(=O)CC(C)(C)C)cc1", "class name": "Not met"}
{"compound": "Cc1ccc(C(=O)C=Cc2sccc2C)cc1", "class name": "Not met"}
{"compound": "CC(=O)N1CCc2cc(C(=O)O)ccc21", "class name": "Met"}
{"compound": "CCc1cccnc1", "class name": "Met"}
{"compound": "CC(=O)Nc1ccc(C(=O)NCc2ccccn2)cc1", "class name": "Met"}
{"compound": "Cc1nc2ccccc2nc1N=C(N)NC(=O)c1ccccc1", "class name": "Not met"}
{"compound": "CC1CNCC(C)N1 (configuration not stated)", "class name": "Met"}
{"compound": "Cc1ccc(C(=O)c2ccc(C)c(N)c2)cc1N", "class name": "Not met"}
{"compound": "N=C(N=C(N)N)N1CCOCC1", "class name": "Met"}

====

assay protocol: Agilent ZORBAX 300 SB-C18, 150 × 1 mm, 3.5 µm; A: water + 0.01% heptafluorobutyric acid; B: acetonitrile + 0.01% heptafluorobutyric acid; gradient (min/%B) 0/0 100/90
experimental parameters: stereoisomer not certain
Some molecules, each annotated with its measured LC retention time.
measured metric: LC retention time (min)

{"molecule": "c1ccc(N2CCN(c3ccccc3)C2c2cccnc2)cc1", "measured metric": "LC retention time", "measurement": 13}
{"molecule": "COc1cccc(C=NNC(=O)c2ccccc2)c1OC", "measured metric": "LC retention time", "measurement": 11.7}
{"molecule": "O=C(O)C1CCCN(CCc2ccccc2)C1 (stereo not drawn)", "measured metric": "LC retention time", "measurement": 8.36}
{"molecule": "O=S(=O)(O)CCN1CCN(CCO)CC1", "measured metric": "LC retention time", "measurement": 1.95}
{"molecule": "CC(C)c1ncc[nH]1", "measured metric": "LC retention time", "measurement": 6.64}
{"molecule": "CN1C(=O)CC(CN)c2ccccc21 (stereo not drawn)", "measured metric": "LC retention time", "measurement": 7.58}
{"molecule": "CC(C)CNC(=O)c1cccc2c1-c1ccccc1C2=O", "measured metric": "LC retention time", "measurement": 13.3}
{"molecule": "COC(=O)Nc1nc2ccc(Sc3ccccc3)cc2[nH]1", "measured metric": "LC retention time", "measurement": 12.2}
{"molecule": "CCNc1ccccc1C(=O)O", "measured metric": "LC retention time", "measurement": 10.8}
{"molecule": "COc1ccc(-c2cc(=O)c3ccc(OC)c(OC)c3o2)cc1OC", "measured metric": "LC retention time", "measurement": 12.7}
{"molecule": "CNCCCC12CCC(c3ccccc31)c1ccccc12", "measured metric": "LC retention time", "measurement": 11.7}
{"molecule": "c1ccc2[nH]cnc2c1", "measured metric": "LC retention time", "measurement": 7.09}
{"molecule": "O=C1CCCc2c1[nH]c1ccccc21", "measured metric": "LC retention time", "measurement": 12.3}

====

assay protocol: Agilent ZORBAX 300 SB-C18, 150 × 1 mm, 3.5 µm; A: water + 0.01% heptafluorobutyric acid; B: acetonitrile + 0.01% heptafluorobutyric acid; gradient (min/%B) 0/0 100/90
experimental parameters: stereoisomer not certain
Here the recorded LC retention time is given for each entry.

{"molecule": "CCCNC(=O)c1ccccc1N", "LC retention time, min": 9.35}
{"molecule": "O=P(O)(O)CN(CCN(CP(=O)(O)O)CP(=O)(O)O)CP(=O)(O)O", "LC retention time, min": 1.09}
{"molecule": "CN(C)CCCN(C)C", "LC retention time, min": 7.19}
{"molecule": "C1CN(CCN2CCOCC2)CCO1", "LC retention time, min": 6.81}
{"molecule": "Cc1cccc(N2CN(Cc3ccccc3)CNC2=S)c1C", "LC retention time, min": 14.1}
{"molecule": "Cc1cc(C)c2c(=O)n(CC(=O)NCCCc3ccccc3)c(=O)n(C)c2n1", "LC retention time, min": 14.1}
{"molecule": "Cc1cc(-c2ccccc2)cc(-c2ccccc2)n1", "LC retention time, min": 12.1}
{"molecule": "O=CC1C(=O)Nc2ccccc21 (configuration not stated)", "LC retention time, min": 8.65}
{"molecule": "Cn1c(=O)n(C)c2cc(N3CCCCC3)c(N)cc21", "LC retention time, min": 8.49}
{"molecule": "CC(C)=NNc1nccc2ccccc12", "LC retention time, min": 10.7}
{"molecule": "COc1ccc(CCN2C(=O)C(C)C(Cc3ccc(C)cc3)C2=O)cc1OC (configuration not stated)", "LC retention time, min": 15.9}
{"molecule": "CC(=O)c1ccc2c(c1)n(C)c(=O)n2C", "LC retention time, min": 9}

====

assay protocol: Agilent ZORBAX 300 SB-C18, 150 × 1 mm, 3.5 µm; A: water + 0.01% heptafluorobutyric acid; B: acetonitrile + 0.01% heptafluorobutyric acid; gradient (min/%B) 0/0 100/90
experimental parameters: stereoisomer not certain
Response field class: string, computed from recorded LC retention time by ranges low class (below 7 min), middle class (7 min to below 10 min), high class (10 min or more)

{"compound": "NC(=O)c1ccccc1NC(=O)Cn1cnc2ccccc2c1=O", "class name": "middle class"}
{"compound": "CC(=O)c1cccc(NC(=O)Nc2ccc(C)cc2)c1", "class name": "high class"}
{"compound": "Cc1ccc(-c2ccc(C(=O)O)[nH]2)cc1", "class name": "high class"}
{"compound": "CC(C(=O)O)n1cccc1 (centres undefined)", "class name": "middle class"}
{"compound": "O=C(NN=Cc1cccnc1)c1ccccn1", "class name": "middle class"}
{"compound": "Nc1ccc2oc3c(c2c1)CCCC3", "class name": "middle class"}
{"compound": "NC(CC(=O)O)c1ccc(C(=O)O)cc1 (centres undefined)", "class name": "low class"}
{"compound": "Nc1cccc(N2CCOCC2)c1", "class name": "middle class"}
{"compound": "CC1=NC(=O)NC(c2ccccc2)C1C(=O)OCc1ccccc1 (centres undefined)", "class name": "high class"}
{"compound": "S=c1[nH]c2ccccc2c2c1CCC2", "class name": "high class"}
{"compound": "NCC(=O)Nc1ccccc1", "class name": "middle class"}
{"compound": "Cn1c(=O)c2cc(S(=O)(=O)O)ccc2n(C)c1=O", "class name": "low class"}
{"compound": "C#CCN(C)C", "class name": "low class"}
{"compound": "CN1CCNCC1", "class name": "low class"}
{"compound": "Cc1cccc(C(=O)C=CN(C)C)c1", "class name": "high class"}
{"compound": "CC(C)(C)c1ccc(-c2nc(NCc3cccnc3)c3ccccc3n2)cc1", "class name": "high class"}
{"compound": "NC(=O)CNc1ccc(C(N)=O)cc1", "class name": "low class"}
{"compound": "CC(=O)c1cc2ccccc2oc1=O", "class name": "high class"}
{"compound": "Cc1cccc(N)c1", "class name": "middle class"}
{"compound": "CC1(C)CC(NC(=S)Nc2ccccc2)CC(C)(C)N1", "class name": "middle class"}
{"compound": "Nc1ccc(N)nc1", "class name": "low class"}
{"compound": "CCNCC", "class name": "low class"}
{"compound": "NC(=S)NC(N)=S", "class name": "low class"}
{"compound": "CCOC(=O)CC1CN(C)CCN1C (centres undefined)", "class name": "middle class"}
